# PROTOCOL TEXT: calcium signal blockers in parental CHO-K1 cells – cell-based, Fluo-8 calcium fluorescence, full deck, 1536-well, counter-screen for M1 antagonist project, primary screen (AID 602250);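 further: 0% = DMSO plus EC80 ATP and 100% = DMSO alone without ATP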
# CONDITION INFO: ATP-induced calcium, Fluo-8 fluorescence, at 3 µM, hits give high values
In all, about 360,000 compounds went through this assay and about 2,200 (0.61%) were called active. Shown is part of a subset that was picked to be rich in actives.
Measured inhibition by item
Give the value, in units of %, as a plain number.

Past entries and their recorded results:
>  <COMPOUND SMILES>
COC(=O)c1ccc(-c2c(-c3ccccc3)ncc3cc(OC)c(OC)cc23)cc1

>  <UNIT TAG>
%

>  <inhibition>
8.1

$$$$
>  <COMPOUND SMILES>
O=C(NNc1nc(N2CCCC2)nc(N2CCCC2)n1)c1ccccc1

>  <UNIT TAG>
%

>  <inhibition>
-8.06

$$$$
>  <COMPOUND SMILES>
Cc1sc(NC(=O)C2=COCCO2)c(C#N)c1C

>  <UNIT TAG>
%

>  <inhibition>
-16.8

$$$$
>  <COMPOUND SMILES>
CCC(CC)C(=O)Nc1cc(C(=O)OC)cc(C(=O)OC)c1

>  <UNIT TAG>
%

>  <inhibition>
-1.71

$$$$
>  <COMPOUND SMILES>
CCN1N=C(c2ccccc2)CCC1=O

>  <UNIT TAG>
%

>  <inhibition>
-1.49

$$$$

Alright, here's another compound for you.
Entry COc1ccc(C)c(Cn2c(-c3nonc3N)nc3ccccc32)c1 — recorded inhibition = -35.1

====

# PROTOCOL TEXT: calcium signal blockers in parental CHO-K1 cells – cell-based, Fluo-8 calcium fluorescence, full deck, 1536-well, counter-screen for M1 antagonist project, primary screen (AID 602250);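 further: 0% = DMSO plus EC80 ATP and 100% = DMSO alone without ATP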
# CONDITION INFO: ATP-induced calcium, Fluo-8 fluorescence, at 3 µM
The whole screen tested about 360,000 compounds, of which about 2,200 (0.61%) were called active.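 How the source made its calls: active means inhibition above a per-plate cutoff, the plate's mean sample inhibition plus 3 SD (cut at about 24% in these data); inactive means the rest.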 Many of the other results were omitted from the sample, so actives are more common in it than they were.
Your answer must be one of the following: true (1) (active), false (0) (inactive)

>  <MOLECULE>
CC(=O)Nc1ccc(S(=O)(=O)N2CCN(C(=O)c3ccccc3F)CC2)cc1

>  <CLASSIFICATION>
false (0)

$$$$
>  <MOLECULE>
CCC(=O)N1CCc2cc(S(=O)(=O)CCC(=O)N3CCN(c4ccccc4F)CC3)ccc21

>  <CLASSIFICATION>
false (0)

$$$$
>  <MOLECULE>
COc1ccc(S(=O)(=O)NC2(C(F)(F)F)N=C3SCCN3C2=O)cc1 (stereo not drawn)

>  <CLASSIFICATION>
false (0)

$$$$

API: the following record is the query input.
Kindly provide the recorded test outcome for the following molecule: O=C(c1ccc(N2CCCC2=O)cc1)N1CCN(c2ccc(C(F)(F)F)cc2[N+](=O)[O-])CC1
true (1)

====

# PROTOCOL TEXT: calcium signal blockers in parental CHO-K1 cells – cell-based, Fluo-8 calcium fluorescence, full deck, 1536-well, counter-screen for M1 antagonist project, primary screen (AID 602250);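 further: 0% = DMSO plus EC80 ATP and 100% = DMSO alone without ATP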
# CONDITION INFO: ATP-induced calcium, Fluo-8 fluorescence, at 3 µM, hits give high values
Out of some 360,000 compounds screened, about 2,200 (0.61%) were called active. The sample holds actives, similar compounds and a random draw of the others, so the mix is not that of the screen.
MEASURED QUANTITY: inhibition (%)
Give the value, in units of %, as a plain number.

Past entries and their recorded results:
>  <COMPOUND>
CCc1cc(C(c2ccccc2OC)N2CCOCC2)c(NC(=O)c2ccccc2)s1 (stereo unspecified)

>  <MEASURED QUANTITY>
inhibition

>  <UNIT TAG>
%

>  <EXPERIMENTAL RESULT>
24.8

$$$$
>  <COMPOUND>
c1ccc(C(=NNc2nc3ccccc3s2)c2ccccn2)cc1

>  <MEASURED QUANTITY>
inhibition

>  <UNIT TAG>
%

>  <EXPERIMENTAL RESULT>
35.5

$$$$
>  <COMPOUND>
CCN(CC(=O)Nc1ccc2c(c1)OCO2)S(=O)(=O)c1ccccc1

>  <MEASURED QUANTITY>
inhibition

>  <UNIT TAG>
%

>  <EXPERIMENTAL RESULT>
-6.57

$$$$
>  <COMPOUND>
COC(=O)c1nc(NC(=O)c2ccc(F)cc2)n[nH]1

>  <MEASURED QUANTITY>
inhibition

>  <UNIT TAG>
%

>  <EXPERIMENTAL RESULT>
-11.8

$$$$

Alright, here's another compound for you.
Entry CC(C)OCCCNC(=O)c1ccc(C2SCC(=O)N2Cc2ccco2)cc1 (stereo unspecified) — recorded inhibition = -4.67

====

# PROTOCOL TEXT: calcium signal blockers in parental CHO-K1 cells – cell-based, Fluo-8 calcium fluorescence, full deck, 1536-well, counter-screen for M1 antagonist project, primary screen (AID 602250);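 further: 0% = DMSO plus EC80 ATP and 100% = DMSO alone without ATP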
# CONDITION INFO: ATP-induced calcium, Fluo-8 fluorescence, at 3 µM, hits give high values
Out of some 360,000 compounds screened, about 2,200 (0.61%) were called active. Many of the other results were omitted from the sample, so actives are more common in it than they were.
MEASURED QUANTITY: inhibition (%)
Give the value, in units of %, as a plain number.

>  <COMPOUND>
Cc1ccccc1N(C(=O)Cc1cccs1)C(C(=O)NC1CCCCC1)c1cn(C)nc1C (stereo unspecified)

>  <inhibition, %>
-4.07

$$$$
>  <COMPOUND>
Cc1c(Cl)cccc1NC(=O)NCc1ccc(C)n1C

>  <inhibition, %>
3.33

$$$$
>  <COMPOUND>
Cc1cccn2c(=O)c(/C=C(\C#N)S(=O)(=O)c3ccc(Cl)cc3)c(N3CCC(C(N)=O)CC3)nc12

>  <inhibition, %>
-14.1

$$$$
>  <COMPOUND>
N#Cc1c(N2CCCCC2)nc(N)c2c(N)nc(SCC(=O)O)cc12

>  <inhibition, %>
-8.03

$$$$
>  <COMPOUND>
Cc1c(NC(=O)Nc2ccccc2Cl)sc(=S)n1C

>  <inhibition, %>
24.7

$$$$

Alright, here's another compound for you.
Entry Cc1cc(C)c(C#N)c(N2CCC(C(N)=O)CC2)n1 — recorded inhibition = 23.7

====

# PROTOCOL TEXT: calcium signal blockers in parental CHO-K1 cells – cell-based, Fluo-8 calcium fluorescence, full deck, 1536-well, counter-screen for M1 antagonist project, primary screen (AID 602250);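 further: 0% = DMSO plus EC80 ATP and 100% = DMSO alone without ATP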
# CONDITION INFO: ATP-induced calcium, Fluo-8 fluorescence, at 3 µM
The campaign covered roughly 360,000 compounds. About 2,200 (0.61%) were called active.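 How the source made its calls: active means inhibition above a per-plate cutoff, the plate's mean sample inhibition plus 3 SD (cut at about 24% in these data); inactive means the rest.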 What follows is part of a selection rich in actives, with near analogues and random picks from the rest.
Your answer must be one of the following: active, inactive

Record excerpt, results attached:
>  <MOLECULE>
COc1ccc(NS(=O)(=O)c2ccc(Oc3c(C#N)cccc3C#N)cc2)cc1

>  <CLASSIFICATION>
active

$$$$
>  <MOLECULE>
CC(C)(C)NC(=O)Cn1nnc(-c2ccccc2Cl)n1

>  <CLASSIFICATION>
inactive

$$$$
>  <MOLECULE>
COC(=O)C1=C(N)Oc2cc(C)oc(=O)c2C1c1cccnc1 (stereo not given)

>  <CLASSIFICATION>
inactive

$$$$

Kindly provide the recorded test outcome for the following molecule: Cc1csc(NC(=O)C2CCCN2C(=O)OCC(C)C)n1 (stereo not given)
inactive

Kindly provide the recorded test outcome for the following molecule: COC(=O)c1ccc(CN2CCCC(C(=O)Nc3cccc(-n4cnnn4)c3)C2)cc1 (stereo not given)
inactive

Kindly provide the recorded test outcome for the following molecule: COc1cc(/C=C(\C#N)C(=O)Nc2ccc3ccccc3c2)c([N+](=O)[O-])cc1OC
inactive

Kindly provide the recorded test outcome for the following molecule: COc1ccc(NC(=O)/C(C#N)=C\c2cc(OC)c(OCc3ccc(C(=O)O)cc3)cc2Br)cc1
active

Kindly provide the recorded test outcome for the following molecule: CC(=O)c1cc(C#N)c(SCC(=O)Nc2nccs2)nc1C
inactive

Kindly provide the recorded test outcome for the following molecule: COc1cc(C(=S)NCc2ccccc2)cc(Br)c1O
inactive

Kindly provide the recorded test outcome for the following molecule: CCSc1nc(O)c(C(c2cccc(OC)c2)c2c(O)nc(SCC)[nH]c2=O)c(=O)[nH]1
inactive

====

# PROTOCOL TEXT: calcium signal blockers in parental CHO-K1 cells – cell-based, Fluo-8 calcium fluorescence, full deck, 1536-well, counter-screen for M1 antagonist project, primary screen (AID 602250);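 further: 0% = DMSO plus EC80 ATP and 100% = DMSO alone without ATP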
# CONDITION INFO: ATP-induced calcium, Fluo-8 fluorescence, at 3 µM
In all, about 360,000 compounds went through this assay and about 2,200 (0.61%) were called active.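 The calls were made as follows: active = inhibition above a per-plate cutoff, the plate's mean sample inhibition plus 3 SD (cut at about 24% in these data); inactive = the rest.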 Many of the other results were omitted from the sample, so actives are more common in it than they were.
Your answer must be one of the following: active, inactive

Record excerpt, results attached:
>  <COMPOUND>
CCOC(=O)C1=CCC(c2ccc(F)cc2)N(S(=O)(=O)c2ccc(C)cc2)C1 (stereo not drawn)

>  <CLASSIFICATION>
active

$$$$
>  <COMPOUND>
O=C(c1ccc(F)cc1)N1CCC(n2nnc3ccccc32)CC1

>  <CLASSIFICATION>
inactive

$$$$
>  <COMPOUND>
O=C(CC(O)(C(F)(F)F)C(F)(F)F)Nc1ccc(Cl)c(Cl)c1

>  <CLASSIFICATION>
active

$$$$
>  <COMPOUND>
COc1cc(O)c2c(=O)c3c(O)c(O)ccc3oc2c1OC

>  <CLASSIFICATION>
inactive

$$$$
>  <COMPOUND>
CCC(=O)Nc1ccccc1C(=O)N1CCN(Cc2ccccc2)CC1

>  <CLASSIFICATION>
inactive

$$$$
>  <COMPOUND>
CN(CC(=O)Nc1cccc(F)c1)C(=O)C1=COCCO1

>  <CLASSIFICATION>
inactive

$$$$
>  <COMPOUND>
CCOc1ccccc1N1C(=O)CC(Sc2nccc(C)n2)C1=O (stereo not drawn)

>  <CLASSIFICATION>
inactive

$$$$
>  <COMPOUND>
Cc1ccnc(SC2CC(=O)N(c3ccccc3)C2=O)n1 (stereo not drawn)

>  <CLASSIFICATION>
inactive

$$$$
>  <COMPOUND>
CN(C)c1ccc(/C=C2\NC(=S)N(Cc3ccccc3)C2=O)cc1

>  <CLASSIFICATION>
active

$$$$
>  <COMPOUND>
Cc1ccc(NC(=O)c2sccc2C)cc1[N+](=O)[O-]

>  <CLASSIFICATION>
inactive

$$$$

Kindly provide the recorded test outcome for the following compound: COc1cc(C(c2c(NC(=O)c3ccco3)sc(C)c2C)N2CCOCC2)cc(OC)c1OC (stereo not drawn)
inactive

Kindly provide the recorded test outcome for the following compound: COc1ccccc1C(=O)NC(CCSC)C(=O)N1CCN(C/C=C/c2ccccc2)CC1 (stereo not drawn)
inactive

Kindly provide the recorded test outcome for the following compound: CC(=O)c1cccc(S(=O)(=O)N2CCC(n3nnc4cc(F)ccc43)CC2)c1
inactive

Kindly provide the recorded test outcome for the following compound: CCOc1ccc(NC(=S)N2CCC(N(C)CC3CCCO3)CC2)cc1 (stereo not drawn)
inactive

Kindly provide the recorded test outcome for the following compound: CC1=CC2=NC(=O)CC(C)(C(=O)N(CC(=O)NC(C)(C)C)Cc3ccccc3)N2C=C1 (stereo not drawn)
inactive

Kindly provide the recorded test outcome for the following compound: CN1OC(COC(=O)c2ccc(Cl)cc2)CC1c1ccccc1 (stereo not drawn)
active

Kindly provide the recorded test outcome for the following compound: CCC1=NN(C(=O)Cc2ccc([N+](=O)[O-])cc2)C(O)(c2ccc(Br)cc2)C1 (stereo not drawn)
inactive
